- protocol text: Oral bioavailability in mouse at 10 mg/kg
- Assay type: ADME, organism-based
- test conditions: in vivo
experimental endpoint: bioavailability
Value and unit, in that order.

For reference, reported bioavailability for Cc1nc(C2CCN(C(=O)[C@@H]3CN(C(C)(C)C)C[C@H]3c3ccc(F)cc3F)CC2)n(-c2ccc(Cl)c(C)c2)n1 stands at 20%

---

- protocol text: Drug uptake in C57 mouse plasma at 30 mg/kg, po after 20 hrs by LC/MS analysis
- Assay type: ADME, organism-based
- Parameters: dose 30 mg/kg, route oral
experimental endpoint: concentration at 20 h (nM)
Value expressed in nM; do not type the unit.

For reference, reported concentration at 20 h for Cc1cc(C2CCN(C(=O)[C@@H]3CN(C(C)(C)C)C[C@H]3c3ccc(F)cc3F)CC2)n(-c2cc(Cl)ccc2Cl)n1 stands at 547

---

- protocol text: Plasma protein binding in 10% human plasma assessed as percentage unbound
- Type: ADME, cell-free
experimental endpoint: fraction unbound

For reference, reported fraction unbound for Cc1cc(C2CCN(C(=O)[C@@H]3CN(C(C)(C)C)C[C@H]3c3ccc(F)cc3F)CC2)n(-c2ccc(Cl)cc2)n1 stands at 0.11

For reference, reported fraction unbound for Cc1cc(C2CCN(C(=O)[C@@H]3CN(C(C)(C)C)C[C@H]3c3ccc(F)cc3F)CC2)n(-c2cc(Cl)ccc2F)n1 stands at 0.14

For reference, reported fraction unbound for Cc1cc(C2CCN(C(=O)[C@@H]3CN(C(C)(C)C)C[C@H]3c3ccc(F)cc3F)CC2)n(-c2ccc(C)c(Cl)c2)n1 stands at 0.05

For reference, reported fraction unbound for Cc1cc(C2CCN(C(=O)[C@@H]3CNC[C@H]3c3ccc(F)cc3F)CC2)n(-c2cc(Cl)ccc2Cl)n1 stands at 0.12

For reference, reported fraction unbound for Cc1cc(C2CCN(C(=O)[C@@H]3CN(C(C)(C)C)C[C@H]3c3ccc(F)cc3F)CC2)n(-c2ccc(Cl)c(Cl)c2)n1 stands at 0.02

For reference, reported fraction unbound for CC(C)(C)N1C[C@@H](C(=O)N2CCC(c3ccnn3-c3ccc(F)c(Cl)c3)CC2)[C@H](c2ccc(F)cc2F)C1 stands at 0.18

For reference, reported fraction unbound for Cc1cc(C2CCN(C(=O)[C@@H]3CN(C(C)(C)C)C[C@H]3c3ccc(F)cc3F)CC2)n(-c2ccc(Cl)c(C)c2)n1 stands at 0.04

For reference, reported fraction unbound for CC(C)(C)N1C[C@@H](C(=O)N2CCC(c3nnnn3-c3ccc(Cl)cc3)CC2)[C@H](c2ccc(F)cc2F)C1 stands at 0.32

For reference, reported fraction unbound for Cc1nc(C2CCN(C(=O)[C@@H]3CN(C(C)(C)C)C[C@H]3c3ccc(F)cc3F)CC2)n(-c2ccc(Cl)c(C)c2)n1 stands at 0.16

For reference, reported fraction unbound for Cc1cc(C2CCN(C(=O)[C@@H]3CN(C(C)(C)C)C[C@H]3c3ccc(F)cc3F)CC2)n(-c2ccc(F)c(F)c2)n1 stands at 0.25

For reference, reported fraction unbound for Cc1cc(C2CCN(C(=O)[C@@H]3CN(C(C)(C)C)C[C@H]3c3ccc(F)cc3F)CC2)n(-c2cc(Cl)ccc2Cl)n1 stands at 0.11

For reference, reported fraction unbound for Cc1cc(C2CCN(C(=O)[C@@H]3CN(C(C)(C)C)C[C@H]3c3ccc(F)cc3F)CC2)n(-c2ccc(Cl)cc2Cl)n1 stands at 0.1

For reference, reported fraction unbound for Cc1nc(C2CCN(C(=O)[C@@H]3CNC[C@H]3c3ccc(F)cc3F)CC2)n(-c2ccc(Cl)cc2)n1 stands at 0.12

For reference, reported fraction unbound for O=C([C@@H]1CNC[C@H]1c1ccc(F)cc1F)N1CCC(c2ccnn2-c2ccc(F)c(Cl)c2)CC1 stands at 0.12

For reference, reported fraction unbound for Cc1nc(C2CCN(C(=O)[C@@H]3CN(C(C)(C)C)C[C@H]3c3ccc(F)cc3F)CC2)n(-c2ccc(F)c(F)c2)n1 stands at 0.7

For reference, reported fraction unbound for Cc1cc(C2CCN(C(=O)[C@@H]3CN(C(C)(C)C)C[C@H]3c3ccc(F)cc3F)CC2)n(-c2ccc(F)c(Cl)c2)n1 stands at 0.16

For reference, reported fraction unbound for Cc1cc(C2CCN(C(=O)[C@@H]3CN(C(C)(C)C)C[C@H]3c3ccc(F)cc3F)CC2)n(-c2ccc(Cl)cc2F)n1 stands at 0.17

For reference, reported fraction unbound for Cc1nc(C2CCN(C(=O)[C@@H]3CN(C(C)(C)C)C[C@H]3c3ccc(F)cc3F)CC2)n(-c2ccc(Cl)cc2)n1 stands at 0.25

For reference, reported fraction unbound for Cc1cc(-n2nc(C3CCN(C(=O)[C@@H]4CN(C(C)(C)C)C[C@H]4c4ccc(F)cc4F)CC3)nc2C)ccc1Cl stands at 0.11

For reference, reported fraction unbound for Cc1nc(C2CCN(C(=O)[C@H]3CN(C(C)(C)C)C[C@@H]3c3ccc(F)cc3F)CC2)n(-c2ccc(Cl)c(C)c2)n1 stands at 0.1

---

- protocol text: Half life in mouse at 2 mg/kg, iv and 10 mg/kg, po
- Format: ADME, organism-based
- test conditions: in vivo
experimental endpoint: half-life (h)
Value expressed in h; do not type the unit.

For reference, reported half-life for Cc1nc(C2CCN(C(=O)[C@@H]3CN(C(C)(C)C)C[C@H]3c3ccc(F)cc3F)CC2)n(-c2ccc(Cl)c(C)c2)n1 stands at 1.8

---

- system under test: Mus musculus
- protocol text: Ex-vivo inhibition of PrCP in heat inactivated 25% plasma of po dosed mouse by FRET analysis
- Format: functional, organism-based
experimental endpoint: pKi
In simple prose, pKi is minus the logarithm base ten of a concentration in moles per litre.

For reference, reported pKi for Cc1cc(C2CCN(C(=O)[C@@H]3CN(C(C)(C)C)C[C@H]3c3ccc(F)cc3F)CC2)n(-c2cc(Cl)ccc2Cl)n1 stands at 9.30

For reference, reported pKi for Cc1cc(C2CCN(C(=O)[C@@H]3CN(C(C)(C)C)C[C@H]3c3ccc(F)cc3F)CC2)n(-c2ccc(F)cc2F)n1 stands at 8.12

For reference, reported pKi for Cc1nc(C2CCN(C(=O)[C@H]3CN(C(C)(C)C)C[C@@H]3c3ccc(F)cc3F)CC2)n(-c2ccc(Cl)c(C)c2)n1 stands at 8.22

For reference, reported pKi for Cc1cc(C2CCN(C(=O)[C@@H]3CNC[C@H]3c3ccc(F)cc3F)CC2)n(-c2ccc(Cl)c(Cl)c2)n1 stands at 7.25

For reference, reported pKi for Cc1cc(C2CCN(C(=O)[C@@H]3CN(C(C)(C)C)C[C@H]3c3ccc(F)cc3F)CC2)n(-c2ccc(Cl)c(F)c2)n1 stands at 8.05

For reference, reported pKi for Cc1cc(C2CCN(C(=O)[C@@H]3CN(C(C)(C)C)C[C@H]3c3ccc(F)cc3F)CC2)n(-c2cc(Cl)ccc2F)n1 stands at 8.80

For reference, reported pKi for O=C([C@@H]1CNC[C@H]1c1ccc(F)cc1F)N1CCC(c2ccnn2-c2ccc(F)c(Cl)c2)CC1 stands at 8.11

For reference, reported pKi for Cc1nc(C2CCN(C(=O)[C@@H]3CN(C(C)(C)C)C[C@H]3c3ccc(F)cc3F)CC2)n(-c2ccc(Cl)c(C)c2)n1 stands at 8.96

For reference, reported pKi for Cc1cc(C2CCN(C(=O)[C@@H]3CNC[C@H]3c3ccc(F)cc3F)CC2)n(-c2ccc(F)c(Cl)c2)n1 stands at 7.70

For reference, reported pKi for CC(C)(C)N1C[C@@H](C(=O)N2CCC(c3ccnn3-c3ccc(F)c(Cl)c3)CC2)[C@H](c2ccc(F)cc2F)C1 stands at 9.15

For reference, reported pKi for C[C@@H](c1ccc(-c2ccccc2)cc1)[C@H](NC(=O)C(C)(C)N)C(=O)N1CCC[C@H]1c1nc2cc(Cl)c(Cl)cc2[nH]1 stands at 8.34

For reference, reported pKi for Cc1cc(C2CCN(C(=O)[C@@H]3CN(C(C)(C)C)C[C@H]3c3ccc(F)cc3F)CC2)n(-c2ccc(Cl)cc2F)n1 stands at 8.60

For reference, reported pKi for Cc1cc(C2CCN(C(=O)[C@@H]3CN(C(C)(C)C)C[C@H]3c3ccc(F)cc3F)CC2)n(-c2ccc(Cl)c(Cl)c2)n1 stands at 8.23

For reference, reported pKi for Cc1cc(C2CCN(C(=O)[C@@H]3CN(C(C)(C)C)C[C@H]3c3ccc(F)cc3F)CC2)n(-c2ccc(F)c(F)c2)n1 stands at 8.03

For reference, reported pKi for Cc1cc(C2CCN(C(=O)[C@@H]3CN(C(C)(C)C)C[C@H]3c3ccc(F)cc3F)CC2)n(-c2ccc(F)c(Cl)c2)n1 stands at 8.89

For reference, reported pKi for Cc1cc(C2CCN(C(=O)[C@@H]3CNC[C@H]3c3ccc(F)cc3F)CC2)n(-c2cc(Cl)ccc2Cl)n1 stands at 8.05

For reference, reported pKi for Cc1cc(C2CCN(C(=O)[C@@H]3CN(C(C)(C)C)C[C@H]3c3ccc(F)cc3F)CC2)n(-c2ccc(Cl)cc2Cl)n1 stands at 8.64
